system: DeltatarO mutant; test: S. aureus survival, RN4220 and DeltatarO strains – OD600, teichoic acid synthesis inhibitors, primary screen (AID 463173); conditions: S. aureus RN4220 wild type/DeltatarO growth, OD600, 18 h, hits give low values, screened at 18.75 µg/mL (by protocol)
The whole screen tested about 52,000 compounds, of which about 4,300 (8.3%) were called active. For the sample, actives were picked, then their nearest neighbours and some compounds at random.
assayEndpoint: survival (%)
Use % as the unit, but write only the number.

survival for DeltatarO mutant with input Cc1ccc(-n2ncc(C(=O)NCCN3CCN(C)CC3)c2C2CCN(C(=O)OC(C)(C)C)CC2)c(C)c1 equals 92

survival for DeltatarO mutant with input Cc1cccc(C)c1-n1ncc(C(=O)NCCN2CCN(C)CC2)c1C1CCN(C(=O)OC(C)(C)C)CC1 equals 8

survival for DeltatarO mutant with input CCOC(=O)c1cnn(-c2cccc(Cl)c2)c1C1CCN(C(=O)OC(C)(C)C)CC1 equals 55

survival for DeltatarO mutant with input Cc1cccc(C)c1-n1ncc(C(=O)NCCN2CCOCC2)c1C1CCN(C(=O)OC(C)(C)C)CC1 equals 101

survival for DeltatarO mutant with input Cc1c(Cl)cccc1-n1ncc(C(=O)NC2CCCC2)c1C1CCN(C(=O)OC(C)(C)C)CC1 equals 102

survival for DeltatarO mutant with input CCOC(=O)N1CCC(NC(=O)c2cnn(-c3cccc(Cl)c3C)c2C2CCN(C(=O)OC(C)(C)C)CC2)CC1 equals 20

survival for DeltatarO mutant with input CC1CCN(C(=O)c2cnn(-c3cccc(Cl)c3)c2C2CCN(C(=O)OC(C)(C)C)CC2)CC1 equals 78

survival for DeltatarO mutant with input CCN1CCN(C(=O)c2cnn(-c3cccc(Cl)c3)c2C2CCN(C(=O)OC(C)(C)C)CC2)CC1 equals 74

From: PubChem BioAssay AID463173
